Biological target: KIAA 1361 (baculovirus expressed human KIAA 1361 kinase domain 2-322) (Homo sapiens)
Sequence (Q7L7X3 2-322): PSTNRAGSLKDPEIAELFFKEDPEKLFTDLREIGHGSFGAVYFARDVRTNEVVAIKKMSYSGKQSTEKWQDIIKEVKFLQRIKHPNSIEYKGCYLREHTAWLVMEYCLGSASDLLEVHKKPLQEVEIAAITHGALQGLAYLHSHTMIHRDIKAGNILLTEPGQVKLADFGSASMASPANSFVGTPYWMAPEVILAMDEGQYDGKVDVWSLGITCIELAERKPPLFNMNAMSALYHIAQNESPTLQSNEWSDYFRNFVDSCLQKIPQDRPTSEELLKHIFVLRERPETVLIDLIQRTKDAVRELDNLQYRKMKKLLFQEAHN
pIC50: −log10 of the molar value.
Assign pIC50 to each entry below.

Consider the following illustrative entries.
# molecule, pIC50
measured = [
    ("COc1cccc(OCC(=O)NCC(=O)NC2CCCc3ccccc32)c1 (centres unmarked)", "5.30 to 6.30"),
    ("COc1ccc(/C=C/C(=O)N2Cc3[nH]cnc3CC2C(=O)NCCc2cccc(Cl)c2)cc1OC (centres unmarked)", "6.30 to 7.30"),
    ("O=C(CNC(=O)c1cnc2ccccc2c1)Nc1cccc2c1CCCC2", "< 5.30"),
    ("CCCCCCOc1ccc(C(=O)NCC(=O)NC2CCCc3ccccc32)cc1 (centres unmarked)", "> 7.30"),
    ("CCc1ccc(-c2ccc(C(=O)NCC(=O)NC3CNCc4ccccc43)cc2)cc1 (centres unmarked)", "5.30 to 6.30"),
    ("CCc1ccc(-c2ccc(C(=O)NCC(=O)N3CCc4ccccc4C3)cc2)cc1", "< 5.30"),
]

Each molecule below has a reported value. Please supply its pIC50.
1. O=C(NCC1COc2ccccc2O1)c1ccc2c(c1)NC(=O)c1ccccc1N2 (centres unmarked)
2. O=C(CN1CCN(S(=O)(=O)CCc2cccc3ccccc23)CC1)Nc1ccccn1

Solution:
1: 6.30 to 7.30; 2: > 7.30

* * *

Biological target: KIAA 1361 (baculovirus expressed human KIAA 1361 kinase domain 2-322) (Homo sapiens)
Sequence (Q7L7X3 2-322): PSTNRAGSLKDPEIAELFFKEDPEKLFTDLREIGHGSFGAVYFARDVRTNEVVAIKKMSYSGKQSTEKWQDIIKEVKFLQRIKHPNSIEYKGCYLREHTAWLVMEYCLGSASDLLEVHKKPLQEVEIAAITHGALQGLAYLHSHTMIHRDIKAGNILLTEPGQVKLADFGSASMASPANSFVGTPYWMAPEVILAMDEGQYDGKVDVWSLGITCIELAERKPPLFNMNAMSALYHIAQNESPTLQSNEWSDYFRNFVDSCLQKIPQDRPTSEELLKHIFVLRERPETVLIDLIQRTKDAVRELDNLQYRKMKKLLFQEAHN
pIC50: −log10 of the molar value.
measurement.kind: pIC50

For every record below, what is its pIC50?
1. O=C(CNC(=O)Nc1ccc(-c2ccccc2)cc1)NC1CCCc2ccccc21 (stereo not shown)
2. CCCCOc1ccc(C(=O)NCC(=O)NC2CCCc3ccccc32)cc1 (stereo not shown)

Solution:
["< 5.30", "5.30 to 6.30"]

* * *

Target: TAO (Homo sapiens, UniProt Q9UL54)
Sequence (Q9UL54 1-1235): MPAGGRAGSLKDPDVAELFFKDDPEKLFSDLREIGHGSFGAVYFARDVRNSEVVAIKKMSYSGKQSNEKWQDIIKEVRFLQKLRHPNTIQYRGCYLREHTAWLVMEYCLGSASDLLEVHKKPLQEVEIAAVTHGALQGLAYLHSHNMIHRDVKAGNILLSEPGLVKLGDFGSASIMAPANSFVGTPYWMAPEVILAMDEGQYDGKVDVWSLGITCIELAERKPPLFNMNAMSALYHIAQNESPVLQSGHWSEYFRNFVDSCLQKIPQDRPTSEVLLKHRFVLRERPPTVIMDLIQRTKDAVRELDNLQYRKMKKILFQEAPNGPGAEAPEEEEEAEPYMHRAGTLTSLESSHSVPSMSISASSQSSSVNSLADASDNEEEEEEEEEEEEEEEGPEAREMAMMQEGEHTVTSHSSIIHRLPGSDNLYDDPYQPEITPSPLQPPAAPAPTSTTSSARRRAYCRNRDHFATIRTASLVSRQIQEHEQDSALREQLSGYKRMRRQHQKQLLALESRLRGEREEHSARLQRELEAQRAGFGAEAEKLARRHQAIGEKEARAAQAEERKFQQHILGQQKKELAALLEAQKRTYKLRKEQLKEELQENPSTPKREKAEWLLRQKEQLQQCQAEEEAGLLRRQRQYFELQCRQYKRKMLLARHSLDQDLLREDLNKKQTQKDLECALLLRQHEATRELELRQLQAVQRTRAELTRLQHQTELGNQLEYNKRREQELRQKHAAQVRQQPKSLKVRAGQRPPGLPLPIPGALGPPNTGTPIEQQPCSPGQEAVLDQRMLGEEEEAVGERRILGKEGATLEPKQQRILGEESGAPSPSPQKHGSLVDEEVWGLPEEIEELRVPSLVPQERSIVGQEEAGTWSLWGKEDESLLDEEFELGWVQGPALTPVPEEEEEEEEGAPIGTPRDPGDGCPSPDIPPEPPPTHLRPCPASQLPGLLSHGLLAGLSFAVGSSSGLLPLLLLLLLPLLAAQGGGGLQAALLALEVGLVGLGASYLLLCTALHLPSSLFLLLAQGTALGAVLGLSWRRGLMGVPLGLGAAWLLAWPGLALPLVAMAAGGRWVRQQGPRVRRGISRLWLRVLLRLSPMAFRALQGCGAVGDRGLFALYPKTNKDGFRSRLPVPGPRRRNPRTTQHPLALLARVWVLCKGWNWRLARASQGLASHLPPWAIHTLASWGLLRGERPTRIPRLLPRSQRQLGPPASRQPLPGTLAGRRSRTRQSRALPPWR
pIC50: −log10 of the molar value.
For each entry below, report its pIC50 value.

Worked cases, answers included:
# compound, pIC50
records = [
    ("COc1ccc2nc(NC(=O)CNC(=O)CC(NC(C)=O)c3ccccc3)sc2c1 (stereo not shown)", "< 5.30"),
    ("CCCCc1ccc(C(=O)NCC(=O)NC2CCCc3ccccc32)cc1 (stereo not shown)", "< 5.30"),
    ("O=C(COc1ccc(Br)cc1)NCC(=O)NC1CCCc2ccccc21 (stereo not shown)", "6.30 to 7.30"),
    ("COc1ccc(/C=C/C(=O)N[C@@H](Cc2c[nH]c3ccccc23)C(=O)NC2CCCc3ccccc32)cc1OC (stereo partly shown)", "5.30 to 6.30"),
    ("O=C(NCC1COc2ccccc2O1)c1ccc2c(c1)NC(=O)c1ccccc1N2 (stereo not shown)", "6.30 to 7.30"),
]

Batch: pIC50 for all items listed.
1. O=C(CNC(=O)N1CCN(c2ccccc2)CC1)NC1CCCc2ccccc21 (stereo not shown)
2. O=C(CNC(=O)c1cnc2ccccc2c1)NC1CCCc2ccccc21 (stereo not shown)
3. CCCCOc1ccc(NC(=O)N[C@@H](COCc2ccccc2)C(=O)NCCc2ccccc2)cc1
4. CCCCCc1ccc(C(=O)NCC(=O)NC2CCCc3ccccc32)cc1 (stereo not shown)
5. O=C(CNC(=O)c1ccc2ccccc2c1)NC1CCCc2ccccc21 (stereo not shown)
6. O=C(CC(NC(=O)c1ccccc1)c1ccccc1)NCC(=O)Nc1nccs1 (stereo not shown)

Solution:
1: < 5.30; 2: < 5.30; 3: < 5.30; 4: 6.30 to 7.30; 5: < 5.30; 6: 5.30 to 6.30

Could I get pIC50 for every one of these entries?
1. O=C(CNC(=O)Nc1cc(C(F)(F)F)cc(C(F)(F)F)c1)NC1CCCc2ccccc21 (stereo not shown)
2. CCOCCCn1c(=S)[nH]c2cc(C(=O)NCC3COc4ccccc4O3)ccc2c1=O (stereo not shown)
3. CCc1ccc(-c2ccc(C(=O)NCC(=O)NCC3COc4ccccc4O3)cc2)cc1 (stereo not shown)
4. CCc1ccc(-c2ccc(C(=O)NCC(=O)NC3CCCc4ccccc43)cc2)cc1 (stereo not shown)
5. O=C(COc1ccc(Cl)cc1)NCC(=O)NC1CCCc2ccccc21 (stereo not shown)
6. COc1ccc(/C=C/C(=O)N[C@@H](COCc2ccccc2)C(=O)NC(c2ccccc2)c2ccccc2)cc1OC

Solution:
< 5.30
6.30 to 7.30
< 5.30
> 7.30
< 5.30
< 5.30

List the reported pIC50 of each compound below.
1. COc1ccc2nc(NC(=O)CCCNC(=O)Cn3cnc4sc5c(c4c3=O)CCCC5)sc2c1
2. CC(C)c1ccc(NC(=O)N2CCC[C@H]2C(=O)NCc2ccc(Cl)c(Cl)c2)cc1

Solution:
5.30 to 6.30
5.30 to 6.30
